# Test system: NCI-H196 complex spheroid growth, percent test/control
# protocol.details: Anticancer human tumor NCI-H196 cell line growth inhibition [AhR]; active = viability on the fitted dose curve at most 10% of control; inactive = the rest;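 note: seven days of drug exposure starting three days after plating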
# setup.conditions: second compound 0.316 µM; first compound 0.0949 µM
One label from this list, please: YES = active, NO = inactive

compound	classification
O=C(C=Cn1cnc(-c2cc(C(F)(F)F)cc(C(F)(F)F)c2)n1)NNc1cnccn1 + CC(CO)NC(=O)c1cc(-c2ccc(Cl)cc2)nn(-c2cnn(C)c2)c1=O	NO
Nc1ncn(C2CC(O)C(CO)S2)c(=O)n1 (stereo unspecified) + Cc1cncc(-c2nc(NCCc3c[nH]c4ccccc34)c3ncn(C(C)C)c3n2)c1	NO
CCN(c1cc(-c2ccc(CN3CCOCC3)cc2)cc(C(=O)NCc2c(C)cc(C)[nH]c2=O)c1C)C1CCOCC1 + Cc1cncc(-c2nc(NCCc3c[nH]c4ccccc34)c3ncn(C(C)C)c3n2)c1	NO
CCN(c1cc(-c2ccc(CN3CCOCC3)cc2)cc(C(=O)NCc2c(C)cc(C)[nH]c2=O)c1C)C1CCOCC1 + Cc1ccccc1N=Nc1ccc(NC(=O)c2ccnn2C)c(C)c1	NO
Nc1ncn(C2CC(O)C(CO)S2)c(=O)n1 (stereo unspecified) + CC(CO)NC(=O)c1cc(-c2ccc(Cl)cc2)nn(-c2cnn(C)c2)c1=O	NO

Short answer needed: outcome of this test for CC(C)CC(NC(=O)C(Cc1ccccc1)NC(=O)c1cnccn1)B(O)O (stereo unspecified) + Cc1cncc(-c2nc(NCCc3c[nH]c4ccccc34)c3ncn(C(C)C)c3n2)c1 ?
YES
